assay: Quantitative High-Throughput drug screen in 47 multiple myeloma cell lines against the NCATS MIPE library collection: JIM1_ECACC cell viability assay (AID 1918964); conditions: JIM1 myeloma viability, CellTiter-Glo ATP luminescence, 48 h; series mostly up to 45.8 µM
Inconclusive results are not listed. Calls of active or inactive are those of the source. Calls follow the shape of the dose curve; as a rule, active = well fitted cell-killing curve with a large enough effect; inconclusive = small, poorly fitted or top-dose-only effect, or effect the other way; inactive = no such curve, though single readings can be large or run the other way.
A correct response names exactly one class from true (1) (active), false (0) (inactive)

• COc1cc2c(c(OC)c1OC)-c1ccc(OC)c(=O)cc1[C@@H](NC(C)=O)CC2 = false (0)
• COc1nc(C)nc(Cl)c1NC1=NCCN1 = false (0)

Q: Hi team, can someone confirm the assay call for CCCCc1oc2ccccc2c1C(=O)c1cc(I)c(OCCN(CC)CC)c(I)c1 ?
Result: true (1)

Q: Entry CN1CCN(CCCN2c3ccccc3Sc3ccc(Cl)cc32)CC1 : call = ?
Result: true (1)

---

test system: CP269; assay: qHTS profiling for inhibitors of Plasmodium falciparum proliferation (AID 504749); also: nearly all actives have a fitted effect of over 60% in size; details: P. falciparum in erythrocytes, SYBR Green DNA, 72 h; series mostly up to 28.7 µM
Results filed as inconclusive are left out. Active and inactive are the calls of the source. Calls come from the whole dose curve; as a rule, active = well fitted inhibition curve with a large enough effect; inconclusive = small, poorly fitted or top-dose-only effect; inactive = flat fitted curve, though single readings scatter.
Hi there, use one of these labels in your reply, thanks! active, inactive

Look over these answered cases.
* O=c1c(-c2ccc(O)cc2)coc2cc(O)cc(O)c12 | inactive
* Cc1cnc(C(=O)NCCc2ccc(S(=O)(=O)NC(=O)NC3CCCCC3)cc2)cn1 | inactive
* Cc1cc(C(C)(C)C)c(O)c(C)c1CC1=NCCN1 | inactive

Q: How did this test come out for CC#C[C@]1(O)CC[C@H]2[C@@H]3CCC4=CC(=O)CCC4=C3[C@@H](c3ccc(N(C)C)cc3)C[C@@]21C ?
Result: active

---

target: M-phase phosphoprotein 8 (Homo sapiens) (UniProt Q99549); assay: qHTS Validation Assay for Inhibitors for MPP8 Chromodomain Interactions with Methylated Histone Tails (AID 488949); details: AlphaScreen MPP8 binding to H3K9me3 peptide; series mostly up to 57.1 µM;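 also: 50 nM MPP8 with 50 nM peptide preformed then compounds added for 30 min; AlphaScreen signal from MPP8 chromodomain bound to biotinylated H3K9me3 peptide; top concentration of the series differs between compounds; nearly all actives have a fitted effect of over 55% in size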
Sequence (Q99549 whole entry, looked up): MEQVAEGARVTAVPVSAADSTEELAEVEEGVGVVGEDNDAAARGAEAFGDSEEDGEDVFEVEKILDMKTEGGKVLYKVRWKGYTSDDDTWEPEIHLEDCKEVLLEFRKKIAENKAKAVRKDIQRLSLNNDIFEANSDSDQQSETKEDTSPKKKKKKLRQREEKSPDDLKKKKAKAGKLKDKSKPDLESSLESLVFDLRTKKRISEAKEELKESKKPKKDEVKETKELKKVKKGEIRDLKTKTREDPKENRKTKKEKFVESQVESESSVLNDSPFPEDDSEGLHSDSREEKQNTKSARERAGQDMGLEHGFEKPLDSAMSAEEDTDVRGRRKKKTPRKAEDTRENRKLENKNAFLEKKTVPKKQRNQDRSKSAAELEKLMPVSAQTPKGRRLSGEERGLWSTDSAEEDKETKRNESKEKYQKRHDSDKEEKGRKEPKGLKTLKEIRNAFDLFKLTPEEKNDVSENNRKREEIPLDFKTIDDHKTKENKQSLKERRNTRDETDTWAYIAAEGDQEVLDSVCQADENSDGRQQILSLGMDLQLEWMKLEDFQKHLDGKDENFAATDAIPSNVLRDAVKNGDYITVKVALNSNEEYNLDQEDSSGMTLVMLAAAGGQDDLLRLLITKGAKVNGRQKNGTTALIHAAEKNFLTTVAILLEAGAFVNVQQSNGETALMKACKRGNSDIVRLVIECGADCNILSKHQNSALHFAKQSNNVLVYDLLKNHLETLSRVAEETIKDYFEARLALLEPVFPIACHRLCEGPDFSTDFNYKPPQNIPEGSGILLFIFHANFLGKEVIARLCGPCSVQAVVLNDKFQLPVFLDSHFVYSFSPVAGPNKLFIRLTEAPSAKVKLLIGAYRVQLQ
Results filed as inconclusive are left out. Active and inactive are the calls of the source. The call rests on the fitted dose curve; in most records, active means well fitted inhibition curve with a large enough effect; inconclusive means small, poorly fitted or top-dose-only effect; inactive means no such curve, though single readings can be large or run the other way.
Hi! Could you answer with just one of these? Y (active), N (inactive)

* COc1ccc(C2CNC(=O)C2)cc1OC1CCCC1 (configuration not stated) | N
* CCOC(=O)c1ncn2c1CN(C)C(=O)c1cc(F)ccc1-2 | N

Q: Status in this test for COc1ccc2c(c1)c(CC(=O)O)c(C)n2C(=O)c1ccc(Cl)cc1 ?
Result: N

Q: Returns: the outcome recorded for Nc1c2c(nc3ccccc13)CCCC2 in this assay.
Result: N

Q: Query: recorded result category for COC(=O)Nc1nc2ccc(C(=O)c3cccs3)cc2[nH]1 in this test
Result: N

---

biological target: N-terminal Xaa-Pro-Lys N-methyltransferase 1 (Homo sapiens); test: qHTS Assay for Inhibitors of N-terminal methyltransferase 1 (NTMT1): LOPAC validation of the NTMT1 SAHH-coupled ThioGlo3 Assay (AID 1347143); details: recombinant NTMT1, SAHH-coupled ThioGlo3 fluorescence; series mostly up to 114 µM;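 also: SAH from peptide methylation measured as thiol fluorescence via SAHH coupling and ThioGlo3; nearly all actives have a fitted effect of over 70% in size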
Records with an inconclusive call do not appear. The source made the active and inactive calls. Calls come from the whole dose curve; as a rule, active = well fitted inhibition curve with a large enough effect; inconclusive = small, poorly fitted or top-dose-only effect; inactive = no such curve, though single readings can be large or run the other way.
Your reply should match one of these outcome classes. yes (1) for active, no (0) for inactive

Example entries and their recorded answers appear below.
- Cc1ccc(-c2cc(C(F)(F)F)nn2-c2ccc(S(N)(=O)=O)cc2)cc1: no (0)
- COc1ccc2c(c1)c(CC(=O)O)c(C)n2C(=O)c1ccc(Cl)cc1: no (0)
- COc1cc2nc(N3CCN(C(=O)C4COc5ccccc5O4)CC3)nc(N)c2cc1OC (stereo not drawn): yes (1)
- CN(C)C(=O)C(CCN1CCC(O)(c2ccc(Cl)cc2)CC1)(c1ccccc1)c1ccccc1: no (0)
- Cc1cn([C@H]2C=C[C@@H](CO)O2)c(=O)[nH]c1=O: no (0)
- Cc1ccc(C(=O)Nc2ccc(S(=O)(=O)O)c3cc(S(=O)(=O)O)cc(S(=O)(=O)O)c23)cc1NC(=O)c1cccc(NC(=O)Nc2cccc(C(=O)Nc3cc(C(=O)Nc4ccc(S(=O)(=O)O)c5cc(S(=O)(=O)O)cc(S(=O)(=O)O)c45)ccc3C)c2)c1: no (0)

Q: In this assay, the call recorded for COc1nc(C)nc(Cl)c1NC1=NCCN1 was what?
Result: no (0)

Q: What did this assay record as the result for CC(C)(C)C(=O)Oc1ccc(S(=O)(=O)Nc2ccccc2C(=O)NCC(=O)O)cc1 ?
Result: no (0)
